Data origin, for the record: the supplement of paper PMC12667976

B1: library; numbered along this chain (parent)
chain: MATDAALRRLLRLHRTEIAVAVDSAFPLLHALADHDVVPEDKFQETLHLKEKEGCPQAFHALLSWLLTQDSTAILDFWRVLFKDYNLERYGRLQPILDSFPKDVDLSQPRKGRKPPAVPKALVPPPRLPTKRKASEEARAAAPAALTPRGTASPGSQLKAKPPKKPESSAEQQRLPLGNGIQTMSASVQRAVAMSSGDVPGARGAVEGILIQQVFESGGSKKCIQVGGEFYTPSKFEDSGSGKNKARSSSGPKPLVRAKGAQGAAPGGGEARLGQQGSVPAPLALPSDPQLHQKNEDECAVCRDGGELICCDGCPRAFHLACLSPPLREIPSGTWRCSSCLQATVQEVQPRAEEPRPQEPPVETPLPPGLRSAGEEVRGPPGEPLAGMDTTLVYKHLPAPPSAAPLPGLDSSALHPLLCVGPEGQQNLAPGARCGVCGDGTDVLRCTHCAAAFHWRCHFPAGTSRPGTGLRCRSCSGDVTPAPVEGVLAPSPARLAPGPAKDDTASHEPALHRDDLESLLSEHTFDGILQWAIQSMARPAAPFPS

Variants of: B1
measurementDescription: AIRE transcriptional activation functional score (insulin promoter-GFP; nonsense median 0, synonymous median 1) (normalised score); higher = higher AIRE activity (more reporter activation)
conditionsUsed: with insulin promoter-GFP reporter in HEK293
metric: AIRE transcriptional activation functional score
// response body must contain only the number

Example entries and their recorded answers appear below.
>>> valuereported("V301I")
0.84
>>> valuereported("D103P")
-0.105
>>> valuereported("T391S")
0.957
>>> valuereported("E329W")
1.13
>>> valuereported("C340H")
1.46

[in] Fill in the blank: the reported AIRE transcriptional activation functional score of V118G is ____.
[out] 0.911

[in] Look up AIRE transcriptional activation functional score for this variant: P357A
[out] 1.01

[in] I am curious: what AIRE transcriptional activation functional score value has been reported for S217P ?
[out] 0.572

[in] For the variant H30D , what AIRE transcriptional activation functional score is on record?
[out] 0.0821

[in] I would be grateful if you could share the reported AIRE transcriptional activation functional score for K131C .
[out] -0.0234
